Target: TMEM63B
Assay: reporter assay of Huesken 2005; note: test concentration or dose not given here
Conditions: siRNA
Oligonucleotides are given in HELM: sugar(base)linkage, 5' to 3'; d 2'-deoxyribose, r ribose, m 2'-O-methylribose, p phosphate. ss, as = sense and antisense strand
The substances listed here are annotated with their normalised inhibition (eCFP-eYFP dual reporter).
The figure you give is taken to be in %; do not add the unit.

RNA1{r(G)p.r(C)p.r(G)p.r(A)p.r(A)p.r(A)p.r(U)p.r(A)p.r(C)p.r(A)p.r(U)p.r(C)p.r(G)p.r(C)p.r(U)p.r(C)p.r(A)p.r(G)p.r(G)p.d(T)p.d(T)}|RNA2{r(C)p.r(C)p.r(U)p.r(G)p.r(A)p.r(G)p.r(C)p.r(G)p.r(A)p.r(U)p.r(G)p.r(U)p.r(A)p.r(U)p.r(U)p.r(U)p.r(C)p.r(G)p.r(C)p.d(A)p.d(G)}$$$RNA1{StrandType:ss}|RNA2{StrandType:as}$ : 40.2
RNA1{r(C)p.r(C)p.r(U)p.r(G)p.r(C)p.r(U)p.r(C)p.r(A)p.r(U)p.r(G)p.r(U)p.r(A)p.r(C)p.r(A)p.r(U)p.r(G)p.r(A)p.r(U)p.r(C)p.d(T)p.d(T)}|RNA2{r(G)p.r(A)p.r(U)p.r(C)p.r(A)p.r(U)p.r(G)p.r(U)p.r(A)p.r(C)p.r(A)p.r(U)p.r(G)p.r(A)p.r(G)p.r(C)p.r(A)p.r(G)p.r(G)p.d(C)p.d(C)}$$$RNA1{StrandType:ss}|RNA2{StrandType:as}$ : 73.1

Now for the substance whose normalised inhibition (eCFP-eYFP dual reporter) we want.
Query: normalised inhibition (eCFP-eYFP dual reporter); subject: RNA1{r(C)p.r(C)p.r(U)p.r(U)p.r(C)p.r(C)p.r(A)p.r(C)p.r(A)p.r(A)p.r(U)p.r(G)p.r(A)p.r(G)p.r(A)p.r(C)p.r(U)p.r(A)p.r(U)p.d(T)p.d(T)}|RNA2{r(A)p.r(U)p.r(A)p.r(G)p.r(U)p.r(C)p.r(U)p.r(C)p.r(A)p.r(U)p.r(U)p.r(G)p.r(U)p.r(G)p.r(G)p.r(A)p.r(A)p.r(G)p.r(G)p.d(T)p.d(G)}$$$RNA1{StrandType:ss}|RNA2{StrandType:as}$
72.3

###

Molecular target: UBE2M
Assay: reporter assay of Huesken 2005
Conditions: siRNA
Oligonucleotides are written 5' to 3', each unit as a sugar letter and its base; * is a phosphorothioate linkage, no mark a phosphodiester; rarer units and linkages stand in square brackets, end groups in braces. Plain capitals give the bases only. d = 2'-deoxy (DNA); r = 2'-OH (RNA)
Endpoint Name: normalised inhibition (eCFP-eYFP dual reporter) (%)
The figure you give is taken to be in %; do not add the unit.

Before answering, review these 2 worked examples.
sense rArGrGrGrCrArArCrGrUrCrUrGrCrCrUrCrArAdTdT / antisense rUrUrGrArGrGrCrArGrArCrGrUrUrGrCrCrCrUdCdG : 79.5
sense rGrGrCrGrGrCrGrCrArGrCrUrGrCrGrGrArUrCdTdT / antisense rGrArUrCrCrGrCrArGrCrUrGrCrGrCrCrGrCrCdGdA : 71.7

Now for the substance whose normalised inhibition (eCFP-eYFP dual reporter) we want.
Query: normalised inhibition (eCFP-eYFP dual reporter); subject: sense rCrArGrCrUrUrCrUrCrArGrArUrCrCrArGrArCdTdT / antisense rGrUrCrUrGrGrArUrCrUrGrArGrArArGrCrUrGdAdT
79.3
